Please provide measured residual activity for the entries that follow.
TARGET_DESC: SUMO-activating enzyme subunit 1 (Homo sapiens) (UniProt Q9UBE0)
Sequence (Q9UBE0 whole entry, the tested form may be a part): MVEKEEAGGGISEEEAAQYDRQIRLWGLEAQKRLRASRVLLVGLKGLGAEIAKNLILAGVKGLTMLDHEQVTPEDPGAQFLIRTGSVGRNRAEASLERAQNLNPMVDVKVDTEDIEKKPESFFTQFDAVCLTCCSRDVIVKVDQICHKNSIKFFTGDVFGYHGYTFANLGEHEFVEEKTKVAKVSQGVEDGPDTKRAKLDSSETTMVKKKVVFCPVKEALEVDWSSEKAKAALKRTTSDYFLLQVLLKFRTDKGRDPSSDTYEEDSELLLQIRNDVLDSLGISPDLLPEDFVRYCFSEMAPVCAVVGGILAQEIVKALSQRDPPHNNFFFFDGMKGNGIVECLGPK
ASSAY_DETAILS: Inhibition of recombinant GST-fused SUMO E1 (unknown origin) using RanGAP1 as substrate at 100 uM after 2 hrs by immunoblot analysis
PARTICULARS: values are per cent of control
Give bare numbers, in %.

SMILES	residual activity / %
Cc1ccc(-c2nc(NC(=O)Nc3ccccc3)sc2C)cc1Cl	41.4
COc1ccccc1NC(=O)Nc1cc(C(C)(C)C)nn1C	95.2

For COc1cccc(NC(=O)Nc2cc(C)nn2-c2ccc(F)cc2)c1 , write its residual activity.
96.4

Reference for the values: ChEMBL document CHEMBL3758164
